method.summary: Zeta-potential measurement
Type: physicochemical
recorded.conditions: zeta potential of peptide assemblies
reported.endpoint: Zeta-Pot.
Numbers only.

Solved entries (count: 10):
RGDKIKIQINMC ... 12.2
CKFKFQFNMW ... 18.4
KLKLQLL ... -4.93
KIKIKIKIYYYY ... 13.3
CSISIQI ... -25.93
KIKIQII ... 5.61
KVKVQVVV ... 0.147
CKIKIQINM ... 16.83
CKIKQIIRGD ... 13.2
KAKAQANM ... -2.62

List Zeta-Pot. for every entry below, keeping the order given.
1. CKIKIQIRGD
2. KIKIQIC
3. KIKQIINM
4. CEFEFQFNMWQ
5. KIKIKIKIWWWW
6. KIKIKIKIWW

Outgoing:
1: 7.157; 2: 19.93; 3: 16.3; 4: -34.23; 5: 15.2; 6: 15.4

----------
method.summary: Turbidity, derived count rate of scattered light
Assay type: physicochemical
recorded.conditions: derived count rate of scattered light; mean, std deviation in separate column
reported.endpoint: Zeta Count Rate / kcps (kcps)
Answers are plain numbers, in kcps.

Solved entries (count: 3):
CKAKAQANM [BL9] ... 207.3
KAKAQA [JJA2 / TM153] ... 20.93
KFKFQFNMW [BL5 / KB13] ... 610.2

List Zeta Count Rate / kcps for every entry below, keeping the order given.
1. CKIKIQINMWQ [MG1]
2. KIKIQII [TG1 / (KM4)]
3. QCKIKQII [CK6]
4. KIKIQIII [TG7]
5. KFKFQF [JJA6]

Outgoing:
1. 1881
2. 1039
3. 301
4. 94.97
5. 183.4

Incoming: Could you share which Zeta Count Rate / kcps value was measured for KIKIQIN [JGB3] ?
Outgoing: 43.43

----------
Assignment: determine reported Zeta Count Rate Category for the given substances.
method.summary: Turbidity, derived count rate of scattered light
Type: physicochemical
recorded.conditions: category 1 or 0 from count rate; key not given
Give bare numbers.

Solved entries (count: 4):
QCKIKQIINMWQ [reference compound] ... 1
KIKQIINM [JGA2] ... 1
MKIKIQINMWQ [TM52] ... 1
ILKNLSRSRKIKIQINMWQ [TM92] ... 1

List Zeta Count Rate Category for every entry below, keeping the order given.
1. CKFKQFFNMWQ [CK13]
2. CKIKQIINM [BL1]
3. KIKIQINMW [JGB1 /TM85]
4. KAKAQA [JJA2 / TM153]
5. QCKFKQFFNMWQ [CK10]
6. KIKIQINM [JGB2]
7. KAKAQANM [TM152]

Outgoing:
1
1
1
0
1
1
0

List Zeta Count Rate Category for every entry below, keeping the order given.
1. RGDCKIKIQINM [TM45]
2. CKIKIQINM [MG2]
3. CKIKQII [MG4a]
4. CKIKQIINMWQ [MG5a / CK17]

Outgoing:
[1, 1, 0, 1]

List Zeta Count Rate Category for every entry below, keeping the order given.
1. CKIKIQINMW [TM86]
2. KIKIKIQINMWQ [VH9]

Outgoing:
1. 1
2. 1

----------
System: TZM-bl cells
Assay type: cell-based
recorded.conditions: CellTiter-Glo, peptide 0.26 µM, mean of n = 3 replicates
reported.endpoint: viability 0.26 µM

Solved entries (count: 5):
KAKAQANMWQ [JG3] ... 106.8
RGDKIKIQINMC [psis29] ... 103.4
CQFQFQF [QBL4] ... 110.4
CSISIQI [TM141] ... 98.15
QCKFKFQF [CK9] ... 104.7

List viability 0.26 µM for every entry below, keeping the order given.
1. RGDSGGGGGGKIKIQIC [TM114 / RC17]
2. QCKIKIQINMWQ [EF-C opt]
3. CKWKWQW [KB4]
4. MKFKFQF [DF5 / CK16]
5. CEFEFQFNMWQ [TM140]
6. KFKFQFW [TM71]

Outgoing:
1: 105.8; 2: 100.5; 3: 110.3; 4: 101.4; 5: 125.8; 6: 107.5

List viability 0.26 µM for every entry below, keeping the order given.
1. CKFKFQF [BL4]
2. RGDSKIKIQIC [TM113 / RC11]
3. QCKIKQIINMWQ [EF-C (Münch Stock)]
4. HHHHKIKIKIKIWWWW [TM4]
5. CKFKFQFW [TM72]

Outgoing:
97.07
92.36
102
89.63
91.88

----------
Assignment: determine reported Fibril for the given substances.
Format: physicochemical
Parameters: key: 1 = fibrils present; 0 non-fibrillar structures
recorded.conditions: FigS12 panel B; TEM
One number for each entry.

NMWQKAKAQA ... 1
KIKIKIQI ... 1
KNERIKNERI ... 0

List Fibril for every entry below, keeping the order given.
1. HGEHGE
2. KIKQIIN

Outgoing:
1: 0; 2: 0

List Fibril for every entry below, keeping the order given.
1. FKFDKFKFDK
2. NMWQKIKQII
3. CRFRVPF
4. CEIEIQINM
5. KVKGVGK
6. KLKLKLQL
7. KAKAQANM
8. KLKLQLL

Outgoing:
[0, 0, 0, 1, 0, 1, 0, 1]

----------
Assignment: determine reported Fibril / Fibril Formation for the given substances.
Assay type: physicochemical
Set-up: key: 1 = fibrils present; 0 non-fibrillar structures
recorded.conditions: TEM, 1 mg/mL, uranyl acetate stain, qualitative
Give bare numbers.

VHDCVNITIK [reference compound] ... 1
GAITIG-NH2 [reference compound] ... 0
MKFKFQF ... 1
KFKFQFNMWQ ... 1
KCQCQCQ ... 1
CKFKQFFNMWQ ... 1

List Fibril / Fibril Formation for every entry below, keeping the order given.
1. RGDKIKIQINMWQ
2. RVHLGLG
3. HHHHKIKIKIKIWWWW
4. CEIEIQI
5. CKYKYQY
6. CKIWIQIY
7. CSISIQINM
8. KIKQIINM

Outgoing:
1
1
0
1
0
1
1
1

List Fibril / Fibril Formation for every entry below, keeping the order given.
1. KIKIQII
2. RQGNINIVA [reference compound]
3. KIKIKIKIWWWW
4. RGEKIKIQINM
5. RGECKFKFQF

Outgoing:
1. 1
2. 1
3. 0
4. 1
5. 1

----------
method.summary: Turbidity, derived count rate of scattered light
Format: physicochemical
recorded.conditions: log10 of derived count rate of scattered light (turbidity)
Assignment: determine reported Log10 Count Rate for the given substances.
Numbers only.

CKIKIQI ... 3.386
CKIKIQIRGD ... 3.762
RGDKIKIQIC ... 3.876
EIEIQINM ... 2.127

List Log10 Count Rate for every entry below, keeping the order given.
1. MKIKIQINM
2. HHHHKIKIQINMYYYY

Outgoing:
2.9918
3.753

List Log10 Count Rate for every entry below, keeping the order given.
1. CEIEIQINMWQ
2. CKAKAQA
3. RGDKIKIQINM
4. KIKIQINMWWWQ
5. RGDCKIKIQINM
6. KIKIKIKI
7. CEFEFQF
8. HHHHKAKAKAKAWWWW

Outgoing:
[3.196, 2.56, 1.7574, 3.8806, 3.2102, 2.191, 2.565, 2.8188]

List Log10 Count Rate for every entry below, keeping the order given.
1. KIKIQIII
2. KVKVQVV
3. HHHHKIKIKIKIYYYY
4. RGDKIKIQINMC
5. KFKFEFEF

Outgoing:
1.978
1.443
4.107
3.147
3.34

List Log10 Count Rate for every entry below, keeping the order given.
1. CKWKWQW
2. CQFQFQF
3. KIKIQIRGD
4. KFKFQFF

Outgoing:
1. 3.876
2. 3.899
3. 2.057
4. 1.577

----------
method.summary: Turbidity, derived count rate of scattered light
Format: physicochemical
recorded.conditions: turbidity, derived count rate of scattered light, log10; data of Figure 2D
Assignment: determine reported Log10 Count Rate for the given substances.
Answers are plain numbers.

Solved entries (count: 5):
KVKGVGK ... 1.709
QCKFKFQFNM ... 3.565
KYKYQY ... 1.499
RGDKIKIQINM ... 1.7574
ILKNLSRSRKIKIQINMWQ ... 2.486

List Log10 Count Rate for every entry below, keeping the order given.
1. KVKVQVV
2. QCKIKQIINMWQ [reference compound]

Outgoing:
1: 1.443; 2: 3.415

----------
Type: physicochemical
recorded.conditions: ThT category; 1 if Rel. ThT >2
reported.endpoint: ThT Cat,

Solved entries (count: 2):
CKIKQII ... 1 (ThT. Cat is 1, if Rel. ThT >2)
NMWQKAKAQA ... 1 (ThT. Cat is 1, if Rel. ThT >2)

List ThT Cat, for every entry below, keeping the order given.
1. CQFQFQF
2. KAKAQA
3. KNDKND
4. KAKAKAQA
5. CKFKQFFNMWQ
6. KFKFQF
7. KFKFQFFF

Outgoing:
["1 (ThT. Cat is 1, if Rel. ThT >2)", "0 (ThT-inactive (N-Fold <2))", "0 (ThT-inactive (N-Fold <2))", "0 (ThT-inactive (N-Fold <2))", "1 (ThT. Cat is 1, if Rel. ThT >2)", "0 (ThT-inactive (N-Fold <2))", "1 (ThT. Cat is 1, if Rel. ThT >2)"]

List ThT Cat, for every entry below, keeping the order given.
1. CKIKIQINMW
2. CKFKQFF
3. KKFQKKFQ
4. MKIKIQINM
5. CKIKIQIRGD
6. RGDSKIKIQIC

Outgoing:
["0 (ThT-inactive (N-Fold <2))", "0 (ThT-inactive (N-Fold <2))", "0 (ThT-inactive (N-Fold <2))", "0 (ThT-inactive (N-Fold <2))", "0 (ThT-inactive (N-Fold <2))", "1 (ThT. Cat is 1, if Rel. ThT >2)"]

List ThT Cat, for every entry below, keeping the order given.
1. QCKIKIQI
2. KAKQAANMWQ
3. KIKIQINMWQ
4. KIKIQINMWWWQ
5. KIKIQIMWNQ

Outgoing:
1: 1 (ThT. Cat is 1, if Rel. ThT >2); 2: 0 (ThT-inactive (N-Fold <2)); 3: 1 (ThT. Cat is 1, if Rel. ThT >2); 4: 0 (ThT-inactive (N-Fold <2)); 5: 0 (ThT-inactive (N-Fold <2))

List ThT Cat, for every entry below, keeping the order given.
1. KIKIQINAWQ
2. MDQMDQMDQMDQMDQ
3. KVKVQVVV
4. KFKFQFF
5. KIKIQINMW
6. KFKFQFN

Outgoing:
["1 (ThT. Cat is 1, if Rel. ThT >2)", "0 (ThT-inactive (N-Fold <2))", "0 (ThT-inactive (N-Fold <2))", "1 (ThT. Cat is 1, if Rel. ThT >2)", "1 (ThT. Cat is 1, if Rel. ThT >2)", "0 (ThT-inactive (N-Fold <2))"]

Data origin: paper PMC10447463
